# protocolSummary: soluble on expression in E. coli; label from the status in PepcDB or PDB records
measure: soluble on expression in E. coli

>>> value("MSTEQANGTTIEEKKDKVAEVTEKLDNLAVDTTNEANDAKQPARRGGFRGRGRGRGRGGHFYQPRPPYEDQMKKLEEDLASKKVIETGVKGHVKWFSVRGRYGFVARDKPTDENEDFFVHQTAITKSSTIKFYLRTLDDDEPVVFDIVEGLKGPEAANVTGPDGENVRGSRFARTLLTHWRTRGRGGARGRGGRGRGAPRQTRDQDGDEKDEKEKSDTIENSGDGETRGKRRTRRHGKLQPDAPSGEKGDGDAAAATTDAAPAAEKKKKRQRKGNKEPTTTTEQKEETAAPAKA")
"not soluble"
>>> value("MKQITIASRESKLALWQTNFVKNRIQLELNIPCEISTMKTQGDIILDQPLNKIGGKALFMKELEVAMLSNKADIAVHSLKDVPYQLPQGFCLAGFMPREDPRDAFVSNKYNSIDDLPKGAVVGTSSLRRKAQLLHYRDDLEIRDLRGNIQTRLSKLDNGDYDAIILASAGLIRLELVERITQFIPVEISLPAVGQGIVVIEALERDNDLLEKIQKLNCRESSRVATAERAFNQELKGGCHVAIGAYAELDNNQITLMAMVASSDGKKILKRKMIGDDPTKLGKLLAQEMIALGAYKILES")
"not soluble"
>>> value("MVCIAAKCGNECSQCKHCHYALEQMSALAQGEKTSGLCPKLETCVFNCLTEDVSKVLSCVATRCNVHCYDGDCPSCKMISRRIFSNICKQHSMTTQPQIKYEGTCPNLFMELADDYVAMKKKKL")
"not soluble"

Source of measurements: the DeepSol protein solubility set
